Biological target: PRMT5-MEP50 (Homo sapiens, UniProt O14744)
Sequence (O14744 whole entry): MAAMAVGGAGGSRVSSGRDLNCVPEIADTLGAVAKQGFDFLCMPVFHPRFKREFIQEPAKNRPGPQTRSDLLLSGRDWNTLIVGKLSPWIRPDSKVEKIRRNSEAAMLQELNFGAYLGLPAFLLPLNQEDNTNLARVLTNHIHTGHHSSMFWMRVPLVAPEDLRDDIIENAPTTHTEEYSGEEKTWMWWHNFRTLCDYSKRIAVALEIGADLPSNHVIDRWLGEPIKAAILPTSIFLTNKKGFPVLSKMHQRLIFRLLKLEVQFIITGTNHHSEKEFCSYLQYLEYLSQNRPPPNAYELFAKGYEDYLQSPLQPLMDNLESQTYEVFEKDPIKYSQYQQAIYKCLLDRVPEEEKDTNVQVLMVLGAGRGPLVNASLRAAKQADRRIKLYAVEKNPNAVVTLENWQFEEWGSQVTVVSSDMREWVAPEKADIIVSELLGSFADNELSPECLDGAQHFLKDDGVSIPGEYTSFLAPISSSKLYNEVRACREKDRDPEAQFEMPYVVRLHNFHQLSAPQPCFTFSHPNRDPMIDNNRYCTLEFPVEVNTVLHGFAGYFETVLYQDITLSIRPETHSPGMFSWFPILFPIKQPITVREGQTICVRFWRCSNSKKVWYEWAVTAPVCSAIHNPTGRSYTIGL
Sequence (Q9BQA1 whole entry partner): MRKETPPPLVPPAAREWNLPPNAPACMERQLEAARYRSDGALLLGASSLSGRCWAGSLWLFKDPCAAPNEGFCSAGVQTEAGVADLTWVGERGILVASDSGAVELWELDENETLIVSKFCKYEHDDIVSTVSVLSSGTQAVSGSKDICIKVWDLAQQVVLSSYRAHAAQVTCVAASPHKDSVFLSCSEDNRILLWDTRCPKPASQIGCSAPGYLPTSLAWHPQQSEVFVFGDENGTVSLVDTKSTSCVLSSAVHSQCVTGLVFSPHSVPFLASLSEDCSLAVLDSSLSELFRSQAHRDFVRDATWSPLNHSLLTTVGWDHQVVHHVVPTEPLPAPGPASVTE
Experiment: PRMT5 assay (3H-SAM flashplate)
Conditions: Table 4; PRMT5 biochemical assay
Protocol: Assays were performed in a 25 μl-volume in 384-well V-bottom polypropylene microplates (Greiner Bio-One, cat. No. 781280) at ambient temperature. Optimized 1× assay buffer was 20 mM Tris-HCl pH 8.0, 1 mM DTT, 0.01% Tween, 0.01%. […] Following two washing cycles with 0.1% Tween-20, the plates were sealed and read on a TopCount (PerkinElmer, Waltham, MA) plate-based scintillation counter. […]
observation_type: IC50

// query Provide IC50 value for the following compound: CN1[C@@H]2CC[C@H]1C[C@H](NC(=O)[C@H]1O[C@@H](n3cc(-c4ccn(C)n4)c4c(N)ncnc43)[C@H](O)[C@@H]1O)C2 [Compound I-205]
// result 100 to 1000 nM

// query Please report the measured IC50 for CN1CCC(N(C[C@H]2CCNC2)C(=O)[C@H]2O[C@@H](n3cc(-c4ccn(C)n4)c4c(N)ncnc43)[C@H](O)[C@@H]2O)CC1 [Compound I-154]
// result 100 to 1000 nM

// query Fill in reported IC50 for this entry: CN1CCC(N(CCCc2cnoc2)C(=O)[C@H]2O[C@@H](n3cc(-c4ccn(C)n4)c4c(N)ncnc43)[C@H](O)[C@@H]2O)CC1 [Compound I-152]
// result 100 to 1000 nM

// query Input Cn1ccc(-c2cn([C@@H]3O[C@H](C(=O)NC4CCN(C5CCC5)CC4)[C@@H](O)[C@H]3O)c3ncnc(N)c23)n1 [Compound I-224] , output reported IC50.
// result 100 to 1000 nM

// query Using known records, supply IC50 for Cn1ccc(-c2cn([C@@H]3O[C@H](C(=O)NC[C@H]4CC[C@H](O)CC4)[C@@H](O)[C@H]3O)c3ncnc(N)c23)n1 [Compound I-159]
// result ≥ 1000 nM

// query Supply recorded IC50 for CN1CCC(NC(=O)[C@H]2O[C@@H](n3cc(C4CCCO4)c4c(N)ncnc43)[C@H](O)[C@@H]2O)CC1 (some centres unmarked) [Compound I-53] here.
// result 100 to 1000 nM

// query For the compound Cn1ccc(-c2cn([C@@H]3O[C@H](C(=O)NC4CCc5cnc(N)nc5C4)[C@@H](O)[C@H]3O)c3ncnc(N)c23)n1 (some centres unmarked) [Compound I-188] , report IC50.
// result 100 to 1000 nM

// query Item CCNc1ccnc(NC(=O)[C@H]2O[C@@H](n3cc(-c4ccn(C)n4)c4c(N)ncnc43)[C@H](O)[C@@H]2O)n1 [Compound I-36] : provide IC50
// result 100 to 1000 nM

// query For the compound CN1CCC(NC(=O)[C@H]2C[C@@H](n3cc(-c4ccn(C)n4)c4c(N)ncnc43)C[C@@H]2O)CC1 [Compound I-55] , give its reported IC50.
// result ≥ 1000 nM

// query Quote IC50 reported for Cn1ccc(-c2cn([C@@H]3O[C@H](C(=O)NCCc4cccnc4)[C@@H](O)[C@H]3O)c3ncnc(N)c23)n1 [Compound I-160] please.
// result 10 to 100 nM

// query Identify measured IC50 corresponding to C[C@@H](NC(=O)[C@H]1O[C@@H](n2cc(-c3ccn(C)n3)c3c(N)ncnc32)[C@H](O)[C@@H]1O)C1CCNCC1 [Compound I-196]
// result 100 to 1000 nM
